tested on: JIYOYE; assay: Cytotoxicity against human Jijoye cells assessed as growth inhibition after 48 hrs by MTT assay; format: functional, cell-based
pIC50: −log10 of the molar value.
Overview of recorded pIC50 for various compounds

{"CHEM SMILES": "COC(=O)[C@H](C)NC(=O)[C@]12CCC(C)(C)C[C@H]1C1=CC[C@@H]3[C@@]4(C)CC=C(B5OC(C)(C)C(C)(C)O5)C(C)(C)[C@@H]4CC[C@@]3(C)[C@]1(C)CC2", "TESTED ON": "JIYOYE", "pIC50": "< 4.30"}
{"CHEM SMILES": "COC(=O)[C@]12CCC(C)(C)C[C@H]1[C@H]1C(=O)C[C@@H]3[C@@]4(C)CC=C(B5OC(C)(C)C(C)(C)O5)C(C)(C)[C@@H]4CC[C@@]3(C)[C@]1(C)CC2", "TESTED ON": "JIYOYE", "pIC50": "< 4.30"}
{"CHEM SMILES": "CC1(C)CC[C@]2(C(=O)O)CC[C@]3(C)C(=CC[C@@H]4[C@@]5(C)CC=C(B6OC(C)(C)C(C)(C)O6)C(C)(C)[C@@H]5CC[C@]43C)[C@@H]2C1", "TESTED ON": "JIYOYE", "pIC50": "< 4.30"}
{"CHEM SMILES": "CC1(C)CC[C@]2(C(=O)NCC(=O)O)CC[C@]3(C)C(=CC[C@@H]4[C@@]5(C)CC=C(B6OC(C)(C)C(C)(C)O6)C(C)(C)[C@@H]5CC[C@]43C)[C@@H]2C1", "TESTED ON": "JIYOYE", "pIC50": 4.87}
{"CHEM SMILES": "CC1(C)CC[C@]2(C#N)CC[C@]3(C)C(=CC[C@@H]4[C@@]5(C)CC=C(B6OC(C)(C)C(C)(C)O6)C(C)(C)[C@@H]5CC[C@]43C)[C@@H]2C1", "TESTED ON": "JIYOYE", "pIC50": "< 4.30"}
{"CHEM SMILES": "C[C@H](NC(=O)[C@]12CCC(C)(C)C[C@H]1C1=CC[C@@H]3[C@@]4(C)CC=C(B5OC(C)(C)C(C)(C)O5)C(C)(C)[C@@H]4CC[C@@]3(C)[C@]1(C)CC2)C(=O)O", "TESTED ON": "JIYOYE", "pIC50": 4.71}
{"CHEM SMILES": "COC(=O)[C@]12CCC(C)(C)C[C@H]1[C@H]1/C(=N\\O)C[C@@H]3[C@@]4(C)CC=C(B5OC(C)(C)C(C)(C)O5)C(C)(C)[C@@H]4CC[C@@]3(C)[C@]1(C)CC2", "TESTED ON": "JIYOYE", "pIC50": "< 4.30"}
{"CHEM SMILES": "COC(=O)[C@]12CCC(C)(C)C[C@H]1[C@H]1C(=O)C=C3[C@@]4(C)CC=C(B5OC(C)(C)C(C)(C)O5)C(C)(C)[C@@H]4CC[C@@]3(C)[C@]1(C)CC2", "TESTED ON": "JIYOYE", "pIC50": "< 4.30"}
{"CHEM SMILES": "COC(=O)CNC(=O)[C@]12CCC(C)(C)C[C@H]1C1=CC[C@@H]3[C@@]4(C)CC=C(B5OC(C)(C)C(C)(C)O5)C(C)(C)[C@@H]4CC[C@@]3(C)[C@]1(C)CC2", "TESTED ON": "JIYOYE", "pIC50": "< 4.30"}
{"CHEM SMILES": "COC(=O)[C@]12CCC(C)(C)C[C@H]1C1=CC[C@@H]3[C@@]4(C)CC=C(B5OC(C)(C)C(C)(C)O5)C(C)(C)[C@@H]4CC[C@@]3(C)[C@]1(C)CC2", "TESTED ON": "JIYOYE", "pIC50": "< 4.30"}
{"CHEM SMILES": "CC1(C)CC[C@]2(C(N)=O)CC[C@]3(C)C(=CC[C@@H]4[C@@]5(C)CC=C(B6OC(C)(C)C(C)(C)O6)C(C)(C)[C@@H]5CC[C@]43C)[C@@H]2C1", "TESTED ON": "JIYOYE", "pIC50": 5.08}

###

Here, each record is paired with measured pIC50 data.
system: SW480; experiment: Cytotoxicity against human SW480 cells assessed as growth inhibition after 48 hrs by MTT assay; type: functional, cell-based; conditions: SW480, 48 h
pIC50: −log10 of the molar value.

{"CHEM SMILES": "CC1(C)CC[C@]2(C(=O)O)CC[C@]3(C)C(=CC[C@@H]4[C@@]5(C)CC=C(B6OC(C)(C)C(C)(C)O6)C(C)(C)[C@@H]5CC[C@]43C)[C@@H]2C1", "TESTED ON": "SW480", "pIC50": "< 4.30"}
{"CHEM SMILES": "COC(=O)[C@]12CCC(C)(C)C[C@H]1[C@H]1C(=O)C[C@@H]3[C@@]4(C)CC=C(B5OC(C)(C)C(C)(C)O5)C(C)(C)[C@@H]4CC[C@@]3(C)[C@]1(C)CC2", "TESTED ON": "SW480", "pIC50": "< 4.30"}
{"CHEM SMILES": "COC(=O)[C@]12CCC(C)(C)C[C@H]1C1=CC[C@@H]3[C@@]4(C)CC=C(B5OC(C)(C)C(C)(C)O5)C(C)(C)[C@@H]4CC[C@@]3(C)[C@]1(C)CC2", "TESTED ON": "SW480", "pIC50": "< 4.30"}

###

system: Jurkat; assay: Cytotoxicity against human Jurkat cells assessed as growth inhibition after 48 hrs by MTT assay; format: functional, cell-based
Listing of recorded IC50 by entry.

{"CHEM SMILES": "COC(=O)[C@H](C)NC(=O)[C@]12CCC(C)(C)C[C@H]1C1=CC[C@@H]3[C@@]4(C)CC=C(B5OC(C)(C)C(C)(C)O5)C(C)(C)[C@@H]4CC[C@@]3(C)[C@]1(C)CC2", "COMPARISON SIGN": ">", "IC50 (µM)": 50}
{"CHEM SMILES": "CC1(C)CC[C@]2(C(=O)NCC(=O)O)CC[C@]3(C)C(=CC[C@@H]4[C@@]5(C)CC=C(B6OC(C)(C)C(C)(C)O6)C(C)(C)[C@@H]5CC[C@]43C)[C@@H]2C1", "COMPARISON SIGN": "=", "IC50 (µM)": 15.5}
{"CHEM SMILES": "CC1(C)CC[C@]2(C(N)=O)CC[C@]3(C)C(=CC[C@@H]4[C@@]5(C)CC=C(B6OC(C)(C)C(C)(C)O6)C(C)(C)[C@@H]5CC[C@]43C)[C@@H]2C1", "COMPARISON SIGN": "=", "IC50 (µM)": 21.6}

###

test system: Jurkat; assay: Cytotoxicity against human Jurkat cells assessed as growth inhibition after 48 hrs by MTT assay; type: functional, cell-based
Each item that follows carries a reported IC50.
REPORTED METRIC: IC50

{"CHEM SMILES": "COC(=O)CNC(=O)[C@]12CCC(C)(C)C[C@H]1C1=CC[C@@H]3[C@@]4(C)CC=C(B5OC(C)(C)C(C)(C)O5)C(C)(C)[C@@H]4CC[C@@]3(C)[C@]1(C)CC2", "REPORTED METRIC": "IC50", "OBSERVED MEASUREMENT": "> 50 µM"}
{"CHEM SMILES": "CC1(C)CC[C@]2(C(=O)O)CC[C@]3(C)C(=CC[C@@H]4[C@@]5(C)CC=C(B6OC(C)(C)C(C)(C)O6)C(C)(C)[C@@H]5CC[C@]43C)[C@@H]2C1", "REPORTED METRIC": "IC50", "OBSERVED MEASUREMENT": "> 50 µM"}
{"CHEM SMILES": "COC(=O)[C@]12CCC(C)(C)C[C@H]1[C@H]1C(=O)C[C@@H]3[C@@]4(C)CC=C(B5OC(C)(C)C(C)(C)O5)C(C)(C)[C@@H]4CC[C@@]3(C)[C@]1(C)CC2", "REPORTED METRIC": "IC50", "OBSERVED MEASUREMENT": "> 50 µM"}

###

tested on: K562; assay: Cytotoxicity against human K562 cells assessed as growth inhibition after 48 hrs by MTT assay; assay type: functional, cell-based; conditions: K562, 48 h
Collected IC50 values appear next to each entry.

{"CHEM SMILES": "COC(=O)[C@]12CCC(C)(C)C[C@H]1[C@H]1C(=O)C=C3[C@@]4(C)CC=C(B5OC(C)(C)C(C)(C)O5)C(C)(C)[C@@H]4CC[C@@]3(C)[C@]1(C)CC2", "IC50": "> 50 µM"}
{"CHEM SMILES": "COC(=O)[C@]12CCC(C)(C)C[C@H]1[C@H]1/C(=N\\O)C[C@@H]3[C@@]4(C)CC=C(B5OC(C)(C)C(C)(C)O5)C(C)(C)[C@@H]4CC[C@@]3(C)[C@]1(C)CC2", "IC50": "> 50 µM"}
{"CHEM SMILES": "COC(=O)[C@H](C)NC(=O)[C@]12CCC(C)(C)C[C@H]1C1=CC[C@@H]3[C@@]4(C)CC=C(B5OC(C)(C)C(C)(C)O5)C(C)(C)[C@@H]4CC[C@@]3(C)[C@]1(C)CC2", "IC50": "> 50 µM"}
{"CHEM SMILES": "CC1(C)CC[C@]2(C(=O)O)CC[C@]3(C)C(=CC[C@@H]4[C@@]5(C)CC=C(B6OC(C)(C)C(C)(C)O6)C(C)(C)[C@@H]5CC[C@]43C)[C@@H]2C1", "IC50": "> 50 µM"}
{"CHEM SMILES": "CC1(C)CC[C@]2(C#N)CC[C@]3(C)C(=CC[C@@H]4[C@@]5(C)CC=C(B6OC(C)(C)C(C)(C)O6)C(C)(C)[C@@H]5CC[C@]43C)[C@@H]2C1", "IC50": "> 50 µM"}
{"CHEM SMILES": "COC(=O)[C@]12CCC(C)(C)C[C@H]1[C@H]1C(=O)C[C@@H]3[C@@]4(C)CC=C(B5OC(C)(C)C(C)(C)O5)C(C)(C)[C@@H]4CC[C@@]3(C)[C@]1(C)CC2", "IC50": "> 50 µM"}
{"CHEM SMILES": "CC1(C)CC[C@]2(C(=O)NCC(=O)O)CC[C@]3(C)C(=CC[C@@H]4[C@@]5(C)CC=C(B6OC(C)(C)C(C)(C)O6)C(C)(C)[C@@H]5CC[C@]43C)[C@@H]2C1", "IC50": "18.2 µM"}
{"CHEM SMILES": "C[C@H](NC(=O)[C@]12CCC(C)(C)C[C@H]1C1=CC[C@@H]3[C@@]4(C)CC=C(B5OC(C)(C)C(C)(C)O5)C(C)(C)[C@@H]4CC[C@@]3(C)[C@]1(C)CC2)C(=O)O", "IC50": "20.1 µM"}
{"CHEM SMILES": "CC1(C)CC[C@]2(C(N)=O)CC[C@]3(C)C(=CC[C@@H]4[C@@]5(C)CC=C(B6OC(C)(C)C(C)(C)O6)C(C)(C)[C@@H]5CC[C@]43C)[C@@H]2C1", "IC50": "8.3 µM"}
{"CHEM SMILES": "COC(=O)CNC(=O)[C@]12CCC(C)(C)C[C@H]1C1=CC[C@@H]3[C@@]4(C)CC=C(B5OC(C)(C)C(C)(C)O5)C(C)(C)[C@@H]4CC[C@@]3(C)[C@]1(C)CC2", "IC50": "> 50 µM"}
{"CHEM SMILES": "COC(=O)[C@]12CCC(C)(C)C[C@H]1C1=CC[C@@H]3[C@@]4(C)CC=C(B5OC(C)(C)C(C)(C)O5)C(C)(C)[C@@H]4CC[C@@]3(C)[C@]1(C)CC2", "IC50": "> 50 µM"}

Every entry's value here was drawn from ChEMBL document CHEMBL2375265.
